Reference source: the supplement of paper PMC10307832

Recorded relative viability values for a group of molecules are listed next.
Tested on: BEN
test-summary: relative viability (nuclei count vs DMSO), 5 days (fraction); higher = more cells survive
experimental-context: first compound 4 µM
recorded-metric: relative viability

1) Cc1sc2c(c1C)C(c1ccc(Cl)cc1)=N[C@@H](CC(=O)OC(C)(C)C)c1nnc(C)n1-2 [JQ1] + NC(=O)Nc1cc(-c2cccc(F)c2)sc1C(=O)N[C@H]1CCCNC1 [AZD7762] (partner 0.2 µM) : 0.372
2) Cc1sc2c(c1C)C(c1ccc(Cl)cc1)=N[C@@H](CC(=O)OC(C)(C)C)c1nnc(C)n1-2 [JQ1] + Nc1nc2[nH]cc(CCc3ccc(C(=O)N[C@@H](CCC(=O)O)C(=O)O)cc3)c2c(=O)[nH]1 [Pemetrexed] (partner 0.2 µM) : 0.384
3) Cc1sc2c(c1C)C(c1ccc(Cl)cc1)=N[C@@H](CC(=O)OC(C)(C)C)c1nnc(C)n1-2 [JQ1] + CC(C)C[C@H](NC(=O)[C@H](Cc1ccccc1)NC(=O)c1cnccn1)B(O)O [Bortezomib] (partner 0.002 µM) : 0.221
4) Cc1sc2c(c1C)C(c1ccc(Cl)cc1)=N[C@@H](CC(=O)OC(C)(C)C)c1nnc(C)n1-2 [JQ1] + N=C(N)NC(=N)NCCc1ccccc1 [Phenformin] (partner 250 µM) : 0.215
